EXPERIMENT: qHTS Screen of the MIPE 4.0 Collection Against Ewings Sarcoma (TC32) (AID 1259256); note: potency is the fitted concentration of half-maximal effect; nearly all actives have a fitted effect of over 45% in size
STUDY CONDITIONS: TC32 Ewing sarcoma viability, CellTiter-Glo, 48 h; series mostly up to 45.8 µM
Inconclusive results are not listed. The source made the active and inactive calls. Calls come from the whole dose curve; as a rule, active = well fitted inhibition curve with a large enough effect; inconclusive = small, poorly fitted or top-dose-only effect; inactive = no such curve, though single readings can be large or run the other way.
Here the recorded Potency is given for each entry.
READOUT TYPE: Potency

[
  {
    "RECORD SMILES": "Nc1cc(C(F)(F)F)c(-c2cc(N3CCOCC3)nc(N3CCOCC3)n2)cn1",
    "RESULT": "0.264 µM (active)"
  },
  {
    "RECORD SMILES": "COc1ccc(F)c(F)c1C(=O)c1cnc(NC2CCN(S(C)(=O)=O)CC2)nc1N",
    "RESULT": "2.35 µM (active)"
  },
  {
    "RECORD SMILES": "Cc1ccc(C(=O)Nc2ccc(CN3CCN(C)CC3)c(C(F)(F)F)c2)cc1C#Cc1cnc2cccnn12",
    "RESULT": "5.9 µM (active)"
  },
  {
    "RECORD SMILES": "CC(=O)OCC(=O)[C@@]1(O)[C@H](C)C[C@H]2[C@@H]3C=C(C)C4=Cc5c(cnn5-c5ccccc5)C[C@]4(C)[C@@H]3[C@@H](O)C[C@@]21C",
    "RESULT": "5.9 µM (active)"
  },
  {
    "RECORD SMILES": "CC(=O)c1c(C)c2cnc(Nc3ccc(N4CCNCC4)cn3)nc2n(C2CCCC2)c1=O",
    "RESULT": "14.8 µM (active)"
  },
  {
    "RECORD SMILES": "CCn1cc(-c2ccnc3[nH]c(-c4cccc(CN(C)C)c4)cc23)c(-c2ccc(NC(=O)N(C)C)cc2)n1",
    "RESULT": "0.0469 µM (active)"
  },
  {
    "RECORD SMILES": "c1cc(-c2cnn3cc(-c4ccc(OCCN5CCCCC5)cc4)cnc23)ccn1",
    "RESULT": "20.9 µM (active)"
  },
  {
    "RECORD SMILES": "CNC(=O)c1cc(Oc2ccc(NC(=O)Nc3cc(C(C)(C)C)nn3-c3ccc4ncccc4c3)c(F)c2)ccn1",
    "RESULT": "20.9 µM (active)"
  }
]

---

EXPERIMENT: Quantitative High-Throughput drug screen in 47 multiple myeloma cell lines against the NCATS MIPE library collection: XG6_PLB cell viability assay (AID 1919865); note: nearly all actives have a fitted effect of over 40% in size
STUDY CONDITIONS: XG6 myeloma viability, CellTiter-Glo ATP luminescence, 48 h; series mostly up to 45.8 µM
Inconclusive results are not listed. Calls of active or inactive are those of the source. Calls follow the shape of the dose curve; as a rule, active = well fitted cell-killing curve with a large enough effect; inconclusive = small, poorly fitted or top-dose-only effect, or effect the other way; inactive = no such curve, though single readings can be large or run the other way.
Labels: class 1 = active, class 0 = inactive

[
  {
    "COMPOUND": "c1nc2nc(Nc3ccc(N4CCOCC4)cc3)nc(NC3CCCCC3)c2[nH]1",
    "CLASS NAME": "class 1"
  },
  {
    "COMPOUND": "Cc1nc2cnc3ccc(C#Cc4cccnc4)cc3c2n1-c1ccc(C(C)(C)C#N)cc1",
    "CLASS NAME": "class 1"
  },
  {
    "COMPOUND": "O=C(O)Cn1nnc(-c2cc(N3CCC(Oc4cc(F)ccc4Br)CC3)no2)n1",
    "CLASS NAME": "class 0"
  },
  {
    "COMPOUND": "CC(C)C[C@H](NC(=O)CNC(=O)c1cc(Cl)ccc1Cl)B(O)O",
    "CLASS NAME": "class 1"
  },
  {
    "COMPOUND": "Cc1cc(Nc2cc(CN3CCOCC3)c3nc(C)c(Cc4ccc(Cl)cc4F)n3n2)n[nH]1",
    "CLASS NAME": "class 1"
  },
  {
    "COMPOUND": "COCCOc1ccc2c(c1)ncn2-c1ccc2cccc(N3CCC(N)CC3)c2n1",
    "CLASS NAME": "class 1"
  },
  {
    "COMPOUND": "CC1(C)O[C@@H]2C[C@@H]3[C@H]4C[C@@H](F)C5=CC(=O)C=C[C@]5(C)[C@@]4(F)[C@@H](O)C[C@]3(C)[C@]2(C(=O)CO)O1",
    "CLASS NAME": "class 0"
  },
  {
    "COMPOUND": "Cc1cccc(C=NNc2cc(N3CCOCC3)nc(OCCc3ccccn3)n2)c1",
    "CLASS NAME": "class 1"
  },
  {
    "COMPOUND": "COc1cc(-c2nn(C3CCC(N4CCN(C(C)=O)CC4)CC3)c3ncnc(N)c23)ccc1NC(=O)c1cc2ccccc2n1C (centres undefined)",
    "CLASS NAME": "class 1"
  },
  {
    "COMPOUND": "Cc1ccc(C(N)=O)cc1Nc1nccc(-c2cn(C(C)C)c3cnccc23)n1",
    "CLASS NAME": "class 1"
  },
  {
    "COMPOUND": "Nc1ccn([C@@H]2O[C@H](CO)[C@H](O)C2(F)F)c(=O)n1",
    "CLASS NAME": "class 1"
  },
  {
    "COMPOUND": "Cc1cc(Nc2cc(N3CCN(C)CC3)nc(Sc3ccc(NC(=O)C4CC4)cc3)n2)n[nH]1",
    "CLASS NAME": "class 1"
  },
  {
    "COMPOUND": "CNC(=O)c1nn(C)c2c1C(C)(C)Cc1cnc(Nc3ccc(N4CCN(C)CC4)cc3)nc1-2",
    "CLASS NAME": "class 1"
  },
  {
    "COMPOUND": "O=C(Nc1cn[nH]c1-c1nc2ccc(CN3CCOCC3)cc2[nH]1)NC1CC1",
    "CLASS NAME": "class 1"
  },
  {
    "COMPOUND": "COC(=O)Nc1ccc(-c2nc(N3CCOCC3)c3cnn(C4CCN(Cc5cccnc5)CC4)c3n2)cc1",
    "CLASS NAME": "class 1"
  },
  {
    "COMPOUND": "Nc1nc(NCCNc2ncc(-n3ccnc3)c(-c3ccc(Cl)cc3Cl)n2)ccc1[N+](=O)[O-]",
    "CLASS NAME": "class 1"
  },
  {
    "COMPOUND": "NC(=O)c1c(OCc2c(F)cc(Br)cc2F)nsc1NC(=O)NCCCCN1CCCC1",
    "CLASS NAME": "class 1"
  },
  {
    "COMPOUND": "CCCCCCCCCC(=O)N[C@@H](Cc1c[nH]c2ccccc12)C(=O)N[C@H](CC(N)=O)C(=O)N[C@@H](CC(=O)O)C(=O)N[C@@H]1C(=O)NCC(=O)N[C@@H](CCCN)C(=O)N[C@@H](CC(=O)O)C(=O)N[C@H](C)C(=O)N[C@@H](CC(=O)O)C(=O)NCC(=O)N[C@H](CO)C(=O)N[C@@H]([C@@H](C)CC(=O)O)C(=O)N[C@@H](CC(=O)c2ccccc2N)C(=O)O[C@@H]1C",
    "CLASS NAME": "class 0"
  },
  {
    "COMPOUND": "CN1CCC(CNc2ccc3ncc(-c4cccc(OC(F)(F)F)c4)n3n2)CC1",
    "CLASS NAME": "class 1"
  },
  {
    "COMPOUND": "Cc1cc(N2CCOCC2)cc2[nH]c(-c3c(NC[C@@H](O)c4cccc(Cl)c4)cc[nH]c3=O)nc12",
    "CLASS NAME": "class 1"
  },
  {
    "COMPOUND": "Cc1cc(Nc2cc(NC(=O)c3c(Cl)cccc3Cl)ccn2)nc(N)n1",
    "CLASS NAME": "class 1"
  },
  {
    "COMPOUND": "C[C@@H]1COC(Nc2ccc3ncnc(Nc4ccc(OCc5nccs5)c(Cl)c4)c3c2)=N1",
    "CLASS NAME": "class 1"
  },
  {
    "COMPOUND": "C=CC(=O)Nc1cc2c(Nc3ccc(F)c(Cl)c3)ncnc2cc1OCCCN1CCOCC1",
    "CLASS NAME": "class 1"
  },
  {
    "COMPOUND": "CC(C)c1cnn2c(NCc3ccccc3)cc(N[C@@H](CO)[C@H](O)CO)nc12",
    "CLASS NAME": "class 1"
  },
  {
    "COMPOUND": "Cc1cnc(-c2cnc(NCCNc3ccc(C#N)cn3)nc2-c2ccc(Cl)cc2Cl)[nH]1",
    "CLASS NAME": "class 1"
  },
  {
    "COMPOUND": "Nc1ccc(C(=O)c2cc3c(ccc4ccccc43)[nH]2)cc1",
    "CLASS NAME": "class 1"
  },
  {
    "COMPOUND": "Cc1cnc(Nc2ccc(F)cc2Cl)nc1-c1c[nH]c(C(=O)N[C@H](CO)c2cccc(Cl)c2)c1",
    "CLASS NAME": "class 1"
  },
  {
    "COMPOUND": "CC1COC2(CCN(c3nc(=O)c4cc(C(F)(F)F)cc([N+](=O)[O-])c4s3)CC2)O1 (centres undefined)",
    "CLASS NAME": "class 0"
  },
  {
    "COMPOUND": "COc1cc2nccc(Oc3ccc(NC(=O)C4(C(=O)Nc5ccc(F)cc5)CC4)cc3)c2cc1OC",
    "CLASS NAME": "class 1"
  },
  {
    "COMPOUND": "Cc1ccc(C(=O)Nc2ccc(CN3CCN(C)CC3)c(C(F)(F)F)c2)cc1C#Cc1cnc2cccnn12",
    "CLASS NAME": "class 1"
  },
  {
    "COMPOUND": "O=C(CCCCCCC(=O)Nc1ccc([C@H]2O[C@@H](CSc3nc(-c4ccccc4)c(-c4ccccc4)o3)C[C@@H](c3ccc(CO)cc3)O2)cc1)NO",
    "CLASS NAME": "class 1"
  },
  {
    "COMPOUND": "NC(=O)Nc1cc(-c2cccc(F)c2)sc1C(=O)N[C@H]1CCCNC1",
    "CLASS NAME": "class 1"
  },
  {
    "COMPOUND": "C[C@]12CC[C@H](O)CC1=CCC1C2CC[C@]2(C)C(n3cnc4ccccc43)=CCC12 (some centres undefined)",
    "CLASS NAME": "class 1"
  },
  {
    "COMPOUND": "COc1cccc(Nc2c(C(N)=O)cnc3c(C)cc(S(=O)(=O)c4cccc(C(=O)N(C)C)c4)cc23)c1",
    "CLASS NAME": "class 0"
  }
]

Recorded values, source PubChem BioAssay (NCATS).
